- Experimental system: CRF-binding protein / CRF-R2 receptor complex (human)
- Test summary: activators of CRF-R2 paired with CRF-BP – cell-based, 384-well, SAR follow-up (AID 651648)
- Setup conditions: cells expressing CRF-BP/CRF-R2 complex, agonist read-out
Active and inactive are the calls of the source. How the calls were made is not given here.
Return exactly one item of Y (active), N (inactive)

O=C(NC(=O)c1ccccc1O)c1ccc(C(F)(F)F)cc1
Y
CCOc1ccccc1N(CC(=O)N1CCOCC1)S(=O)(=O)c1ccc(SC)cc1
Y
CC1(C)C(=O)OC(c2cccn2-c2ccc([N+](=O)[O-])cc2)C2(CCCCC2)C1=O (stereo not given)
N

Query string: What outcome does the record of this test show for "CC(=O)Nc1ccc(Sc2ncccc2C(=O)Nc2cccc(OC(F)(F)F)c2)cc1" ?
Result string: N

Query string: Same question, "Cc1ccccc1N(CC(=O)N1CCOCC1)S(=O)(=O)c1ccc(Cl)cc1" this time
Result string: N

Query string: Now the compound "COc1ccc(S(=O)(=O)N(CC(=O)N2CCOCC2)c2ccccc2OC)cc1"
Result string: N

Query string: Another compound: "CC(=O)Nc1ccc(Sc2ncccc2C(=O)Nc2cc(Cl)cc(Cl)c2)cn1"
Result string: N

Query string: Field entry: "Cc1ccc(S(=O)(=O)NCC(=O)N(CC(=O)NCc2ccco2)Cc2ccccc2)cc1"
Result string: Y

Query string: Please answer likewise for "CC(=O)Nc1ccc(Sc2ncccc2C(=O)Nc2ccc(OC(F)(F)F)cc2)cn1"
Result string: Y

Query string: Same thing, different compound: "CCOc1cccc(N(CC(=O)N2CCOCC2)S(=O)(=O)c2ccccc2)c1"
Result string: N

###

- Experimental system: CRF-binding protein / CRF-R2 receptor complex (human)
- Test summary: activators of CRF-R2 paired with CRF-BP – cell-based, 384-well, SAR follow-up (AID 651648)
- Setup conditions: cells expressing CRF-BP/CRF-R2 complex, agonist read-out
Activity calls are given as the source filed them. No rule for the calls is given here.
Output constraint: value belongs to true = active, false = inactive

Cc1[nH]n(-c2cccc(Cl)c2)c(=O)c1-c1ccc(Cl)cc1
false
Cc1ccc2nc(NCCC(=O)O)nc(-c3ccccc3)c2c1
false
CCOc1ccccc1N(CC(=O)N1CCCCCC1)S(=O)(=O)c1ccc(SC)cc1
false

Query string: Hello, I am checking results. What call was entered for "CCOc1ccccc1N(CC(=O)N1CCOCC1)S(=O)(=O)c1ccc(F)cc1" ?
Result string: true

Query string: Another: "O=C(O)c1ccc(COc2ccccc2C=C2C(=O)c3ccccc3C2=O)cc1"
Result string: false

Query string: Also, "O=C(COC(=O)[C@H](Cc1ccccc1)NC(=O)c1ccco1)NCc1ccccc1" please.
Result string: true

Query string: Moving on to "CCOc1ccccc1N(CC(=O)N1CCOCC1)S(=O)(=O)c1ccc(OC)cc1"
Result string: true

Query string: Another molecule to look at: "Cc1cc(=O)[nH]c(SCC(=O)Nc2ccc(Br)cc2)c1C#N"
Result string: false

Query string: Could you do the same for "O=c1c(/C=C(\O)c2ccc(F)cc2)nc2ccccc2n1-c1ccccc1" , please?
Result string: true

Query string: Would you kindly repeat that for "CCOc1ccc(N(CC(=O)N2CCOCC2)S(=O)(=O)c2ccc(C)cc2)cc1" ?
Result string: false

###

- Experimental system: CRF-binding protein / CRF-R2 receptor complex (human)
- Test summary: activators of CRF-R2 paired with CRF-BP – cell-based, 384-well, SAR follow-up (AID 651648)
- Setup conditions: cells expressing CRF-BP/CRF-R2 complex, agonist read-out
Activity calls are given as the source filed them. The rule behind the calls is not given here.
Lab note: assign the record to one of true = active, false = inactive

Cc1cc(S(=O)(=O)c2cc3ccc(O)c(C)c3oc2=O)ccc1F
true
O=c1c(/C=C(\O)c2ccccc2)nc2ccccc2n1-c1ccccc1
true
COc1ccc(C(=O)CSc2nnn(-c3cccc(NC(C)=O)c3)n2)cc1
false
CCOc1ccccc1N(CC(=O)N1CCOCC1)S(=O)(=O)c1ccc(OC)cc1OC
false
CC(=O)Nc1ccc(Sc2ncccc2C(=O)Nc2ccc(Br)cc2)cc1
true

Query string: I would be grateful if you could indicate the recorded call for "CCOc1ccccc1N(CC(=O)N1CCC(C)CC1)S(=O)(=O)c1ccc(SC)cc1" .
Result string: false

Query string: Likewise for "CCOC(=O)c1sc(NC(=O)c2cc(-c3ccccc3)nc3ccccc23)c(C#N)c1C" ?
Result string: false

Query string: Okay, and "CCOc1ccccc1N(CC(=O)N1CCOCC1)S(=O)(=O)c1ccccc1" ?
Result string: true

Query string: # iterate: "CC(=O)Nc1ccc(Sc2ccccc2C(=O)Nc2ccc(F)cc2)cn1"
Result string: false

Query string: Quick one: "COc1ccc(C)cc1N(CC(=O)N1CCOCC1)S(=O)(=O)c1ccccc1"
Result string: true

Query string: Now the compound "COc1ccc(NC(=O)c2ccccc2Sc2ccc(NC(C)=O)nc2)cc1"
Result string: false

Query string: Input "O=C1Nc2ccccc2N(O)N1c1cc(-c2cccc(Cl)c2)no1"
Result string: false
